target: human CaSR (Homo sapiens); construct: human CaSR open reading frame (ORF) was contained in the pcDNA3.1/Zeo(+) vector; expressed in transfected cells; assay: Human calcium sensing receptor (CaSR) agonistic activity test (FLIPR, Fluo-3 intracellular Ca2+); format: cell-based
Sequence (P41180 20-1078): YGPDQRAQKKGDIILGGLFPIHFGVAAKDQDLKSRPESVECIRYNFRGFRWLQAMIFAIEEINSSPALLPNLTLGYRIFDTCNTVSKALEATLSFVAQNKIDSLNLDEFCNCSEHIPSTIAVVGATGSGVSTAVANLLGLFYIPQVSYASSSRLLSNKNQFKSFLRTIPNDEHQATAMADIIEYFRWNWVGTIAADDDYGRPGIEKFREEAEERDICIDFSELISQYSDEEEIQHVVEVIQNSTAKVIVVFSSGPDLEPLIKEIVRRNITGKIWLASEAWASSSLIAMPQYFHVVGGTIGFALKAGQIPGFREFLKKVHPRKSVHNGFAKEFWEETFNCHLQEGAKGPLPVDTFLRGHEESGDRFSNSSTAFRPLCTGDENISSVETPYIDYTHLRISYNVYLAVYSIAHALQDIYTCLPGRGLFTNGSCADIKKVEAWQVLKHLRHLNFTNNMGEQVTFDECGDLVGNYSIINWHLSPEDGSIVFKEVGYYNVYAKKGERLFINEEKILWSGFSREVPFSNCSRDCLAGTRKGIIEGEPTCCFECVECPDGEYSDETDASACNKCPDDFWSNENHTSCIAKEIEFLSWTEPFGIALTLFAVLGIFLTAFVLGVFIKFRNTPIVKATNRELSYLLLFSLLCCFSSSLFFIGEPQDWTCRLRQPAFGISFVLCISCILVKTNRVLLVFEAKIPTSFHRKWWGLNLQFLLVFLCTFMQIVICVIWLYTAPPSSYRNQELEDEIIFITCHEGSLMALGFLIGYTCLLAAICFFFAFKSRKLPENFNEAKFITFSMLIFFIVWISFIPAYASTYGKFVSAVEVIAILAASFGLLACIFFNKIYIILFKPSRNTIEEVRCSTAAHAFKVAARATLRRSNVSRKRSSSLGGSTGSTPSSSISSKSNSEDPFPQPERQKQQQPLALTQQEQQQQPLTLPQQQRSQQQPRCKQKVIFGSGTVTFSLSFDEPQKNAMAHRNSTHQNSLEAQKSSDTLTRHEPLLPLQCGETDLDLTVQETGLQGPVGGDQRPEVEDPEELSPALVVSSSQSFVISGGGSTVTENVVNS
Let's look at some compounds and their measured EC50.
ASSAY_READOUT: EC50 (nM)

> print(dat)
                                   compound  assay.readout  unit.of.measurement  numeric.value
1  C[C@@H](NC[C@H]1CN(C(=O)Oc2ccc(C(=O)O)cc2)C[C@@H]1c1cccc(F)c1F)c1cccc2ccccc12           EC50                   nM           0.77
2  C[C@@H](NC[C@H]1CN(C(=O)Oc2ccc(C(=O)O)cc2)C[C@@H]1c1cccc(F)c1)c1cccc2ccccc12           EC50                   nM            3.4
3  C[C@@H](NC[C@H]1CN(C(=O)Oc2ccc(C(=O)O)cc2)C[C@@H]1c1ccccc1)c1cccc2ccccc12.Cl [Example 33, hydrochloride]           EC50                   nM            2.3
